# PBM binding z-score annotations
system: VDR homodimer (NR concentration 270 nM); test: PBM binding z-score (relative to random genomic background probes); higher = stronger binding; sequences stand for … in GC…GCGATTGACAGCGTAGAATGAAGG
Give the value as a plain number.

Some sequences with recorded PBM binding z-score:
{"sequenceRecord": "ACTCGGAGGTCAAAGGTCAGAGCTACGCCAGTGA", "testedOn": "VDR homodimer (NR concentration 270 nM)", "PBM binding z-score": 3.99}
{"sequenceRecord": "TAGCCTAGGTCATGCGGGACAGTATAGTGTCGGC", "testedOn": "VDR homodimer (NR concentration 270 nM)", "PBM binding z-score": 1.16}
{"sequenceRecord": "CCAGACAGGTGAGAAGGTAACTCAGCCTCGATTA", "testedOn": "VDR homodimer (NR concentration 270 nM)", "PBM binding z-score": 0.403}
{"sequenceRecord": "CGTCAAAGGTCAATGCTAGGTCAGTGAAAGCATT", "testedOn": "VDR homodimer (NR concentration 270 nM)", "PBM binding z-score": 2.5}

stdin: Record request: PBM binding z-score value, item AATACAGGGTGACTAGGCCAGAGTAGGTACGAAT
stdout: 0.309

stdin: Record request: PBM binding z-score value, item CCGAGGAGGTTACGAGGGGGCATTCAGTGCGAAT
stdout: 3.87

stdin: Record request: PBM binding z-score value, item CGTCAAAGTCCAAGGTAACGTAACAGAAAGCAGC
stdout: 0.231

stdin: Record request: PBM binding z-score value, item CCTTACGGGTTACTCCAGGTTATAGCATCGGAGT
stdout: 0.487

stdin: Record request: PBM binding z-score value, item CGTCCAAGGTTAAGGTCAGTGAAAGAGACTCGAA
stdout: 1.79

stdin: Record request: PBM binding z-score value, item CGAACGAGGTCAAAGGACAGTGAAAGGCGACGTA
stdout: 3.52

stdin: Record request: PBM binding z-score value, item TAGCCTAGGTCATGCGGCCCAGTATAGTGTCGGC
stdout: 0.276

stdin: Record request: PBM binding z-score value, item CCGACTGGGGCAAGGTCACCATAACGCACAGCCA
stdout: 2.02

stdin: Record request: PBM binding z-score value, item GGAACGAGGTCAAGTTGATAGCAGAGTTTGATGG
stdout: 5.11

stdin: Record request: PBM binding z-score value, item CAAACTAGGTCAAGAGGTCAAAGTTCGCTTCCCG
stdout: 5.53

stdin: Record request: PBM binding z-score value, item CCTACTGGGCCATTCAGAGGTCAATGATCATATG
stdout: 1.44

stdin: Record request: PBM binding z-score value, item TCGTGTAGGTTACGGGGGCATTCAGGGATGAAGA
stdout: 3.98

stdin: Record request: PBM binding z-score value, item TACCCTAGGTCATGGGCCAGTATACCACGCGAAC
stdout: 1.35

stdin: Record request: PBM binding z-score value, item CGAACTAGGTCAAGGACAGTAAATCTCCGCACGC
stdout: 0.575

stdin: Record request: PBM binding z-score value, item ATCGAAAGGTCAAGGTGAGTATAGAGAAAGGGAA
stdout: 1.84

---

# PBM binding z-score annotations
tested on: PPARg:RXRa 270nM:90nM, anti-RXR (NR concentration 270 nM, RXRa partner concentration 90 nM); assay: PBM binding z-score (relative to random genomic background probes); higher = stronger binding; sequences stand for … in GC…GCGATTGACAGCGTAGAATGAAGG

Some sequences with recorded PBM binding z-score:
{"sequenceRecord": "TGTCAAAGTTCAAAGGTGACGTAAGTATCCACAC", "PBM binding z-score": 7.89}
{"sequenceRecord": "CAAACTAGGTCACCGAAAGGTCAAAGTCCGCATG", "PBM binding z-score": 8.22}
{"sequenceRecord": "CAAACGAGGTCACAGAGGTCAAAGTCCGTGCGTA", "PBM binding z-score": 8.76}

stdin: Record request: PBM binding z-score value, item TCTAGTTGGTCACGGAGGTCACAAACGACGGGTA
stdout: 3.83

stdin: Record request: PBM binding z-score value, item CCTTACGGGTCACTGACAGGTTATAGCGTTTGGA
stdout: 4.32

stdin: Record request: PBM binding z-score value, item AGTCAAACTTCAGGACGAGGTAACGTAAAGCACG
stdout: -0.132

stdin: Record request: PBM binding z-score value, item AGAATGAGGTCACCAAAGATCAGGGAAACGCTTG
stdout: 8.01

stdin: Record request: PBM binding z-score value, item CGTCAAAGGTCAAGGTCAGTGAAAGAGACTCGAA
stdout: 8.78

stdin: Record request: PBM binding z-score value, item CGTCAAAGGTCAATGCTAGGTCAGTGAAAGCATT
stdout: 8.21

stdin: Record request: PBM binding z-score value, item TATACAAGGTCAAAGGCCAGAGTACGAATGTCGA
stdout: 7.39

stdin: Record request: PBM binding z-score value, item CGTCAAACTTCAACTAAGGTAACGTAAAGCACGC
stdout: 0.064

stdin: Record request: PBM binding z-score value, item CAAACTAGGTCACAAAAGGTCAAAGTCGAATGAC
stdout: 8.38

stdin: Record request: PBM binding z-score value, item TGTCAAAGGTCAAAGGTAACGTAAGTATCCACAC
stdout: 9.9

The measurements presented in this section are drawn from the supplement of paper PMC6555819.
